Origin of measurements: PubChem BioAssay AID1963865

System: KRAS PDC multicell spheroid viability;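 note: spheroids exposed to compounds for 7 days; 100% = DMSO vehicle control viability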
Experiment: Anticancer human tumor 825966-067-R-J1-PDC patient-derived colon carcinoma cell line growth inhibition [KRAS2]
Conditions: second compound 0.0316 µM; first compound 0.0316 µM; active compounds read low

[
  {
    "MOLECULE": "CC1OCC2(CCN(c3cnc(Sc4ccnc(N)c4Cl)c(N)n3)CC2)C1N (stereo not given) + C=CC(=O)N1CCN(c2nc(OCC3CCCN3C)nc3c2CCN(c2cccc4cccc(C)c24)C3)CC1CC#N",
    "SYSTEM": "KRAS PDC multicell spheroid viability",
    "viability, T/C / %": 105
  },
  {
    "MOLECULE": "CC1(C)CCC(CN2CCN(c3ccc(C(=O)NS(=O)(=O)c4ccc(NCC5CCOCC5)c([N+](=O)[O-])c4)c(Oc4cnc5[nH]ccc5c4)c3)CC2)=C(c2ccc(Cl)cc2)C1 + C=CC(=O)N1CCN(c2nc(OCC3CCCN3C)nc3c2CCN(c2cccc4cccc(C)c24)C3)CC1CC#N",
    "SYSTEM": "KRAS PDC multicell spheroid viability",
    "viability, T/C / %": 104
  },
  {
    "MOLECULE": "CC(C)NCC(C(=O)N1CCN(c2ncnc3c2C(C)CC3O)CC1)c1ccc(Cl)cc1 (stereo not given) + C=CC(=O)N1CCN(c2nc(OCC3CCCN3C)nc3c2CCN(c2cccc4cccc(C)c24)C3)CC1CC#N",
    "SYSTEM": "KRAS PDC multicell spheroid viability",
    "viability, T/C / %": 105
  },
  {
    "MOLECULE": "COc1cc(Nc2ncc3c(n2)-c2ccc(Cl)cc2C(c2c(F)cccc2OC)=NC3)ccc1C(=O)O + C=CC(=O)N1CCN(c2nc(OCC3CCCN3C)nc3c2CCN(c2cccc4cccc(C)c24)C3)CC1CC#N",
    "SYSTEM": "KRAS PDC multicell spheroid viability",
    "viability, T/C / %": 136
  },
  {
    "MOLECULE": "CCN1CCN(Cc2ccc(Nc3ncc(F)c(-c4cc(F)c5nc(C)n(C(C)C)c5c4)n3)nc2)CC1 + C=CC(=O)N1CCN(c2nc(OCC3CCCN3C)nc3c2CCN(c2cccc4cccc(C)c24)C3)CC1CC#N",
    "SYSTEM": "KRAS PDC multicell spheroid viability",
    "viability, T/C / %": 91
  },
  {
    "MOLECULE": "Cn1ncnc1[C@H]1c2n[nH]c(=O)c3cc(F)cc(c23)N[C@@H]1c1ccc(F)cc1 + C=CC(=O)N1CCN(c2nc(OCC3CCCN3C)nc3c2CCN(c2cccc4cccc(C)c24)C3)CC1CC#N",
    "SYSTEM": "KRAS PDC multicell spheroid viability",
    "viability, T/C / %": 85.2
  },
  {
    "MOLECULE": "CN(C)C/C=C/C(=O)Nc1cc2c(Nc3ccc(F)c(Cl)c3)ncnc2cc1O[C@H]1CCOC1 + C=CC(=O)N1CCN(c2nc(OCC3CCCN3C)nc3c2CCN(c2cccc4cccc(C)c24)C3)CC1CC#N",
    "SYSTEM": "KRAS PDC multicell spheroid viability",
    "viability, T/C / %": 94.5
  },
  {
    "MOLECULE": "CCNC(=O)CC1N=C(c2ccc(Cl)cc2)c2cc(OC)ccc2-n2c(C)nnc21 (stereo not given) + C=CC(=O)N1CCN(c2nc(OCC3CCCN3C)nc3c2CCN(c2cccc4cccc(C)c24)C3)CC1CC#N",
    "SYSTEM": "KRAS PDC multicell spheroid viability",
    "viability, T/C / %": 80.1
  },
  {
    "MOLECULE": "CC1COCCN1c1cc(-c2ccnn2C)c2ccnc(-c3ccn[nH]3)c2n1 (stereo not given) + C=CC(=O)N1CCN(c2nc(OCC3CCCN3C)nc3c2CCN(c2cccc4cccc(C)c24)C3)CC1CC#N",
    "SYSTEM": "KRAS PDC multicell spheroid viability",
    "viability, T/C / %": 102
  },
  {
    "MOLECULE": "CC(C)n1nc(-c2ccc3oc(N)nc3c2)c2c(N)ncnc21 + C=CC(=O)N1CCN(c2nc(OCC3CCCN3C)nc3c2CCN(c2cccc4cccc(C)c24)C3)CC1CC#N",
    "SYSTEM": "KRAS PDC multicell spheroid viability",
    "viability, T/C / %": 113
  }
]
